Reference source: the supplement of paper PMC3334620

# System: Gcr1 (UniProt P07261)
# Sequence: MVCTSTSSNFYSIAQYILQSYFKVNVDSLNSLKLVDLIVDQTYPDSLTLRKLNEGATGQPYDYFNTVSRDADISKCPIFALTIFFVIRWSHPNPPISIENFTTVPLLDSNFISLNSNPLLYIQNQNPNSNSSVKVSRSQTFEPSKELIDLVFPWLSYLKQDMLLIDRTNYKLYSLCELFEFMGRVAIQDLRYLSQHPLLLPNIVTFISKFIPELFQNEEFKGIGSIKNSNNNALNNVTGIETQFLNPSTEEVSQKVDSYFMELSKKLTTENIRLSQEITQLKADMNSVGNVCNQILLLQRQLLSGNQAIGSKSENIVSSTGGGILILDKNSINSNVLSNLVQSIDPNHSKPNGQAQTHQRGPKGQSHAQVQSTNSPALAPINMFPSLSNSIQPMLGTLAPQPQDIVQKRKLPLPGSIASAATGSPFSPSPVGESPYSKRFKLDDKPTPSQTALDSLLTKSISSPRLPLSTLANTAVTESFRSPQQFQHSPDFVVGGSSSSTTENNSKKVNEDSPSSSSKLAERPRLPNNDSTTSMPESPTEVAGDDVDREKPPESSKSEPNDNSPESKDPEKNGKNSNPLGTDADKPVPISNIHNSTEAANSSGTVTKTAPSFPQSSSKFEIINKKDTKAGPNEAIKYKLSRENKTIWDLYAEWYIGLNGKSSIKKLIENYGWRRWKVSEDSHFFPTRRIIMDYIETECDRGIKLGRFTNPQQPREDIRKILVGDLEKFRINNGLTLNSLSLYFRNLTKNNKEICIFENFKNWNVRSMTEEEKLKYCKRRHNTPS
# Test: PBM E-score (8-mer binding enrichment) (E-score (-0.5 to 0.5)); higher = stronger / more preferred TF binding
# Study conditions: protein concentration: 100 nM; construct: GST-full length
In all, about 33,000 sequences were measured (“E-score (-0.5 to 0.5)”: median about -0.011, highest 2% from about 0.28 on). The sample as a whole holds a higher share of the highest values than the screen did.
// label = true (1) if PBM E-score is not less than 0.004, otherwise false (0)

Some entries whose results are on file:
INSERT INTO assay_data (chain_sequence, class) VALUES
  ('CATACTTA', 'true (1)'),
  ('ACGAAGAA', 'false (0)'),
  ('ATGCATCC', 'false (0)'),
  ('ATGGCCCG', 'false (0)');

Challenge: Textbook exercise: given the entry `TTGTGAAA` , state whether its PBM E-score is greater than or equal to 0.004.
Response given: true (1)

Challenge: Record: `AAGAAAAA`
Response given: true (1)

Challenge: Queued: `AAGAAGAC`
Response given: true (1)

Challenge: And for `AGTTTCAT` ?
Response given: true (1)

Challenge: Same read-out for `CCCGAGAC` ?
Response given: true (1)

Challenge: Now try `AATAAGAA` .
Response given: true (1)

Challenge: Field entry: `CATACCGA`
Response given: true (1)

----------
# System: Gcr1 (UniProt P07261)
# Sequence: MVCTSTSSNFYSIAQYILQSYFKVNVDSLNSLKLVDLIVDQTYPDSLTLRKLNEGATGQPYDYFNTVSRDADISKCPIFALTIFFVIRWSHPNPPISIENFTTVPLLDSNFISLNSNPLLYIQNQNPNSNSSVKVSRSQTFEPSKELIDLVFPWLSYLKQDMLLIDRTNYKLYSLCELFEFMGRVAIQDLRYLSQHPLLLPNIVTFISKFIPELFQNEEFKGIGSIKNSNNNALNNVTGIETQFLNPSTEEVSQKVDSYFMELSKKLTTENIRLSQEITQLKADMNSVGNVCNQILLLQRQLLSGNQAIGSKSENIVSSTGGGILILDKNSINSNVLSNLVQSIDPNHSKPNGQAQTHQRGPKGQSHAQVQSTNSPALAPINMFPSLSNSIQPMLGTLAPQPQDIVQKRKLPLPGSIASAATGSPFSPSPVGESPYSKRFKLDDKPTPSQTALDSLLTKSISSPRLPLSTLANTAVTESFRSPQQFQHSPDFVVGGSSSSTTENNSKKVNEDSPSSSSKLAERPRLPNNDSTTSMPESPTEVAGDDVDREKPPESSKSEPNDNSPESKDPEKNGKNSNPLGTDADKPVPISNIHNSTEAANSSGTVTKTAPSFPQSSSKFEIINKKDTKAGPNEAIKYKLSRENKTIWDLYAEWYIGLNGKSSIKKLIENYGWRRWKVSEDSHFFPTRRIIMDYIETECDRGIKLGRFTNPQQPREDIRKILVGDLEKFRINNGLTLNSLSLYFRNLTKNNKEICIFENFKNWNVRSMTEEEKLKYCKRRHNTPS
# Test: PBM E-score (8-mer binding enrichment) (E-score (-0.5 to 0.5)); higher = stronger / more preferred TF binding
# Study conditions: protein concentration: 100 nM; construct: GST-full length
Over roughly 33,000 sequences, “E-score (-0.5 to 0.5)” has its median near -0.011; the highest 2% begin near 0.28. The list comes from a sample in which the highest values are over-represented; it also holds close analogues and randomly drawn sequences.
Reported PBM E-score maps to class as: lo (below -0.01), mid (-0.01 to below 0.2), hi (0.2 or more)

INSERT INTO assay_data (chain_sequence, class) VALUES
  ('AGGAATCG', 'hi'),
  ('GGGCCAAC', 'lo'),
  ('ACCGGACT', 'lo');

Challenge: Lab log: `GCAGCTAC` — assign PBM E-score category
Response given: hi

Challenge: Same again, this time with `AAGGTAAA`
Response given: mid

----------
# System: Gcr1 (UniProt P07261)
# Sequence: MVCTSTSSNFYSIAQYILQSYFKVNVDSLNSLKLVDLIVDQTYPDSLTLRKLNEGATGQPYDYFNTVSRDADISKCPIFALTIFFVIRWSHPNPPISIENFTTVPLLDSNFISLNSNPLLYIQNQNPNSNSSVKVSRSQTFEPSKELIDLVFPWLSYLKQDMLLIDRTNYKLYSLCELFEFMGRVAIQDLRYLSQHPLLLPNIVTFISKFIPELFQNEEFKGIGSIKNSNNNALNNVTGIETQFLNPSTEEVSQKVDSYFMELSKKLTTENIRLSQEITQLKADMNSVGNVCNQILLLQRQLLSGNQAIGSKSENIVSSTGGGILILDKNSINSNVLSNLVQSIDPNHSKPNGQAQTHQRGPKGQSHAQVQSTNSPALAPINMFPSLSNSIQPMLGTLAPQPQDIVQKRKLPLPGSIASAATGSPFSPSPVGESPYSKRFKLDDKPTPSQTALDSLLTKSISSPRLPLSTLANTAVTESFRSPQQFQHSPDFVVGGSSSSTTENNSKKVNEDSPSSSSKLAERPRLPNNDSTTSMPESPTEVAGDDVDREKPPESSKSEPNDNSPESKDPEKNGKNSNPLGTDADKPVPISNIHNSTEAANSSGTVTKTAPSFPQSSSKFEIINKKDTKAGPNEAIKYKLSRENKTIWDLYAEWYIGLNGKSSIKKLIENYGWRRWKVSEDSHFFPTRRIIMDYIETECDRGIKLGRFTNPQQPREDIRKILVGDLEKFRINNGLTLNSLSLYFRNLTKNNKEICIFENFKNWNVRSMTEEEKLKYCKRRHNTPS
# Test: PBM E-score (8-mer binding enrichment) (E-score (-0.5 to 0.5)); higher = stronger / more preferred TF binding
# Study conditions: protein concentration: 100 nM; construct: GST-full length
The full ranking holds about 33,000 sequences; the median of “E-score (-0.5 to 0.5)” is about -0.011, and the highest 2% start at about 0.28. What follows is part of a selection rich in the highest values, with near analogues and random picks from the rest.
Some sequences, each annotated with its measured PBM E-score.
Number, no unit, nothing else.

Some sequences with recorded PBM E-score:
INSERT INTO measurements (chain_sequence, quantitative_result) VALUES
  ('ACGGCTGC', -0.014),
  ('ATGGCTTA', 0.0216),
  ('CGATCTTA', -0.045);

Challenge: Bench note: what PBM E-score did `GCCACAAA` show?
Response given: 0.0996

Challenge: What do you get for `AGGCAGAT` ?
Response given: 0.0845

Challenge: // next record `CCAGAGCG`
Response given: -0.144

Challenge: `ATGGCTTG` ?
Response given: -0.236

Challenge: Lookup `CGAGGGTC`
Response given: -0.166

Challenge: Try `CCCACAAG` next.
Response given: 0.0598

Challenge: `CTAGCTTC` , same question.
Response given: 0.316

Challenge: Now the sequence `ACCCACAC`
Response given: -0.0404

----------
# System: Gcr1 (UniProt P07261)
# Sequence: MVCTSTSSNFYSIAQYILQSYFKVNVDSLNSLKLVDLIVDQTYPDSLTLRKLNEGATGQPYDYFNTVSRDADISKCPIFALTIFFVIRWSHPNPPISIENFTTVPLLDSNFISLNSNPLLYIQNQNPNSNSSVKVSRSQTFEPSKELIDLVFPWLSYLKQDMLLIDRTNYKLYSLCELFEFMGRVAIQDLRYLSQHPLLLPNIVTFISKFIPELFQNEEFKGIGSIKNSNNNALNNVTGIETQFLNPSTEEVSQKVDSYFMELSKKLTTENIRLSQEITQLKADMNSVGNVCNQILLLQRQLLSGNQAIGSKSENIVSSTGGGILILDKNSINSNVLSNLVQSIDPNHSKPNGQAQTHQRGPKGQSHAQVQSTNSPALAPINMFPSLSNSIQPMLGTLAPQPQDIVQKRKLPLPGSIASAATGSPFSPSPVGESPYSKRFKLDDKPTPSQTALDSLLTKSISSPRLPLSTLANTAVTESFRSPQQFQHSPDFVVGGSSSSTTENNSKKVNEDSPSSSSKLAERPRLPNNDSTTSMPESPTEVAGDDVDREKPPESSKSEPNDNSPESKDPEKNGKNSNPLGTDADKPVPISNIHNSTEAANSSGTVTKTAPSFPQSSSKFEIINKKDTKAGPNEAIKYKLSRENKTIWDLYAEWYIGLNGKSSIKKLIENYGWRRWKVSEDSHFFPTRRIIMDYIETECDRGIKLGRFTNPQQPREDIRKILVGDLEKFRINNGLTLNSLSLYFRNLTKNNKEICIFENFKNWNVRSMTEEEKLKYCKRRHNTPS
# Test: PBM E-score (8-mer binding enrichment) (E-score (-0.5 to 0.5)); higher = stronger / more preferred TF binding
# Study conditions: protein concentration: 100 nM; construct: GST-full length
In all, about 33,000 sequences were measured (“E-score (-0.5 to 0.5)”: median about -0.011, highest 2% from about 0.28 on). Only a selection was taken, and the highest values are over-represented in it overall.
Reported values of PBM E-score for individual entries
Enter the number alone.

INSERT INTO results (chain_sequence, quantitative_result) VALUES
  ('GGCAACCC', 0.176),
  ('GCAACCAC', 0.267),
  ('AGAATACG', 0.182),
  ('ACGGCACC', 0.142),
  ('GGAACCAA', 0.31);

Challenge: Requested field: PBM E-score. Item: `CAGAAGCG`
Response given: 0.223
